Test: DUSP6 inhibitors restoring Erk phosphorylation by chemical complementation, primary imaging in DUSP6-transfected HeLa (AID 609)
Conditions: HeLa MKP-3 transfected, phospho-Erk imaging KS statistic; measured here: nuclear c-Myc green intensity z-score; at 10 µM; cells stimulated with TPA for 15 min
Assay endpoint: z-score
Answers are plain numbers.

Example entries and their recorded answers appear below.
[Q] Check the records and state z-score for COc1ccccc1C1C(C#N)=C(N)Oc2cc(C)n(Cc3ccccn3)c(=O)c21 (stereo unspecified)
[A] -0.155

[Q] Check the records and state z-score for Oc1ccc(Br)cc1CNn1cnnc1
[A] 1.89

[Q] Check the records and state z-score for CC(C)(C)C1CCC2(CC1)C(C#N)=C(SCC(=O)Nc1ccccc1)NC(=O)C2C#N (stereo unspecified)
[A] -1.06

[Q] Check the records and state z-score for COc1ccc(/C(O)=C2/C(=O)C(=O)N(CCCN(C)C)C2c2ccco2)cc1Cl (stereo unspecified)
[A] -1.33

[Q] Check the records and state z-score for COc1ccc(/C(O)=C2/C(=O)C(=O)N(c3ncccn3)C2c2ccc(OC)c(OC)c2)cc1 (stereo unspecified)
[A] 0.795

Read the next record carefully.
[Q] Check the records and state z-score for CCOC(=O)CSc1nc(NC#N)nc(N(CC)CC)n1
[A] -0.374
